// provenance: patent US20230287044A1

- Test system: MRAB (A. baumannii) ATCC BAA 1605
- Type: cell-based, Acinetobacter baumannii
- ASSAY_CONDITIONS: ATCC BAA 1605, 18 h
Square brackets hold non-standard residues; d marks the D form. Peptide text beside a SMILES is read from it.
Would you mind telling me the reported MIC MRAB (A. baumannii) ATCC BAA 1605 of each entry?
One number for each entry, in µM.

MOLECULE	QUANTITY_MEASURED	VALUE_REPORTED
CC(C)[C@@H](NC(=O)[C@@H](Cc1c[nH]c2ccccc12)NC(=O)[C@@H](CCCNC(=N)N)NC(=O)[C@@H](CCCNC(=N)N)NC(=O)[C@H](N)CCCNC(=N)N)C(=O)N[C@@H](C(=O)N[C@@H](C(=O)N[C@@H](C(=O)N[C@@H](C(=O)N[C@H](Cc1c[nH]c2ccccc12)C(N)=O)C(C)C)C(C)C)C(C)C)C(C)C [KSH86, rrrwvvvvvw] (H-[dR][dR][dR][dW][dV][dV][dV][dV][dV][dW]-NH2; N-terminus assumed)	MIC MRAB (A. baumannii) ATCC BAA 1605	10
CC(C)[C@@H](NC(=O)[C@H](N)Cc1c[nH]c2ccccc12)C(=O)N[C@@H](C(=O)N[C@H](Cc1c[nH]cn1)C(=O)N[C@@H](C(=O)N[C@@H](C(=O)N[C@H](Cc1c[nH]c2ccccc12)C(=O)N[C@H](CCCNC(=N)N)C(=O)N[C@H](CCCNC(=N)N)C(=O)N[C@H](CCCNC(=N)N)C(N)=O)C(C)C)C(C)C)C(C)C [KSH45, wvvhvvwrrr] (H-[dW][dV][dV][dH][dV][dV][dW][dR][dR][dR]-NH2; N-terminus assumed)	MIC MRAB (A. baumannii) ATCC BAA 1605	1.25
CC(C)[C@@H](NC(=O)[C@H](N)Cc1c[nH]c2ccccc12)C(=O)N[C@@H](C(=O)N[C@H](Cc1c[nH]c2ccccc12)C(=O)N[C@H](Cc1c[nH]c2ccccc12)C(=O)N[C@@H](C(=O)N[C@H](CCCNC(=N)N)C(=O)N[C@H](CCCNC(=N)N)C(=O)N[C@H](CCCNC(=N)N)C(N)=O)C(C)C)C(C)C [KSH40, wvvwwvrrr] (H-[dW][dV][dV][dW][dW][dV][dR][dR][dR]-NH2; N-terminus assumed)	MIC MRAB (A. baumannii) ATCC BAA 1605	1.25

# return MIC MRAB (A. baumannii) ATCC BAA 1605 for each item in the list
1. CC(C)[C@@H](NC(=O)[C@@H](Cc1c[nH]c2ccccc12)NC(=O)[C@@H](CCCNC(=N)N)NC(=O)[C@@H](CCCNC(=N)N)NC(=O)[C@H](N)CCCNC(=N)N)C(=O)N[C@H](Cc1c[nH]c2ccccc12)C(=O)N[C@@H](C(=O)N[C@@H](C(=O)N[C@H](Cc1c[nH]c2ccccc12)C(=O)N[C@H](Cc1c[nH]c2ccccc12)C(N)=O)C(C)C)C(C)C [KSH81, rrrwvwvvww] (H-[dR][dR][dR][dW][dV][dW][dV][dV][dW][dW]-NH2; N-terminus assumed)
2. CC[C@@H](C)[C@@H](NC(=O)[C@@H](Cc1c[nH]c2ccccc12)NC(=O)[C@H](NC(=O)[C@@H](CC(C)C)NC(=O)[C@H](N)Cc1c[nH]c2ccccc12)C(C)C)C(=O)N[C@H](Cc1c[nH]c2ccccc12)C(=O)N[C@H](CCCNC(=N)N)C(=O)N[C@H](CCCNC(=N)N)C(N)=O [KSH32, wlvwiwrr] (H-[dW][dL][dV][dW][dI][dW][dR][dR]-NH2; N-terminus assumed)

1: 10; 2: 1.25
